- study-target: Hck (UniProt P08631)
- Sequence (P08631 whole entry, looked up): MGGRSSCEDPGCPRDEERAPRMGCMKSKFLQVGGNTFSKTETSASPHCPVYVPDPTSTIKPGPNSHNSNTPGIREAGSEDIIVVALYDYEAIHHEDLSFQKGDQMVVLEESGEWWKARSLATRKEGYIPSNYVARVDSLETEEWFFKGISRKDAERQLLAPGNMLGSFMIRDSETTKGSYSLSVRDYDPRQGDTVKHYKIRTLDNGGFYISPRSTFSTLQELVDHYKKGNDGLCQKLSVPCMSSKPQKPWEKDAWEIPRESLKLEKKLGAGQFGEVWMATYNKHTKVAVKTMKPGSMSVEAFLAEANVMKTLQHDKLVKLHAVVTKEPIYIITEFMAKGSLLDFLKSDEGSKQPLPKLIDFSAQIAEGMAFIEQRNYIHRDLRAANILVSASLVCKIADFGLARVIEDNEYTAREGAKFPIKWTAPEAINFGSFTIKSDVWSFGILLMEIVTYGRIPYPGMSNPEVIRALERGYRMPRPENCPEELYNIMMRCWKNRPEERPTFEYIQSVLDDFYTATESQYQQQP
- test-details: phosphorylation enrichment, bacterial display (enrichment ratio); higher = better substrate or ligand; peptides without Tyr show the background;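 also: 11-residue human phosphosite peptides and single-mutation variants displayed on the E. coli surface, counted by deep sequencing, each peptide's frequency after selection divided by its frequency in the unselected input library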;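 also: frequency after pTyr selection over input frequency; kinase dosed for 20-30% of maximal phosphorylation in three min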
Task for the reader: assign each of the following sequences its reported phosphorylation enrichment.
Just the number.

Task item: So what does the record say about phosphorylation enrichment for FADGVYLALEE [DUOX2_Y70_Q71L_YF] ?
Reply: 1.51

Task item: Could you tell me which phosphorylation enrichment is on file for DHTVNYVLKCR [PLEKHG4_Y1068_R1064H] ?
Reply: 0.532

Task item: What value of measured phosphorylation enrichment is listed for FQLPFYNTVPS [BMPR1A_Y458_M460T_YF] ?
Reply: 0.687

Task item: Bench note: what phosphorylation enrichment did INPIIYAFVGG [CCR5_Y297_E302G] show?
Reply: 6.35

Task item: So what does the record say about phosphorylation enrichment for EEGESHVCSSD [DCX_Y125_Y125H] ?
Reply: 0.497

Task item: So what does the record say about phosphorylation enrichment for RFGRKYKKVRF [F8_Y442_I438F] ?
Reply: 0.674

Task item: Could you tell me which phosphorylation enrichment is on file for PIPAAYNKFDQ [CDC73_Y290_R292K_YF] ?
Reply: 0.661

Task item: Can you share its phosphorylation enrichment? I mean this sequence: MHDSNYVSKGS [PDGFRA_Y849]
Reply: 0.554

Task item: Reported phosphorylation enrichment for PDSVDYRKKGF [CTSK_Y121_YF] : what is it?
Reply: 0.55

Task item: Sample KSIDEYLKLVG [RASAL2_Y381_E379D] — what was its phosphorylation enrichment?
Reply: 0.489

Task item: Could you tell me which phosphorylation enrichment is on file for SLKAFYGEDAK [ALDH3A1_Y272_E270A] ?
Reply: 0.456

Task item: Any idea what its phosphorylation enrichment is? The sequence is VQNIVYHTASI [CYP39A1_Y102_R103H]
Reply: 0.543

Task item: # input sequence: LEQDEYALRSH [HADHB_Y244] ; wanted: its phosphorylation enrichment
Reply: 1.08

###

- study-target: EPHB2 (UniProt P29323)
- Sequence (P29323 whole entry, looked up): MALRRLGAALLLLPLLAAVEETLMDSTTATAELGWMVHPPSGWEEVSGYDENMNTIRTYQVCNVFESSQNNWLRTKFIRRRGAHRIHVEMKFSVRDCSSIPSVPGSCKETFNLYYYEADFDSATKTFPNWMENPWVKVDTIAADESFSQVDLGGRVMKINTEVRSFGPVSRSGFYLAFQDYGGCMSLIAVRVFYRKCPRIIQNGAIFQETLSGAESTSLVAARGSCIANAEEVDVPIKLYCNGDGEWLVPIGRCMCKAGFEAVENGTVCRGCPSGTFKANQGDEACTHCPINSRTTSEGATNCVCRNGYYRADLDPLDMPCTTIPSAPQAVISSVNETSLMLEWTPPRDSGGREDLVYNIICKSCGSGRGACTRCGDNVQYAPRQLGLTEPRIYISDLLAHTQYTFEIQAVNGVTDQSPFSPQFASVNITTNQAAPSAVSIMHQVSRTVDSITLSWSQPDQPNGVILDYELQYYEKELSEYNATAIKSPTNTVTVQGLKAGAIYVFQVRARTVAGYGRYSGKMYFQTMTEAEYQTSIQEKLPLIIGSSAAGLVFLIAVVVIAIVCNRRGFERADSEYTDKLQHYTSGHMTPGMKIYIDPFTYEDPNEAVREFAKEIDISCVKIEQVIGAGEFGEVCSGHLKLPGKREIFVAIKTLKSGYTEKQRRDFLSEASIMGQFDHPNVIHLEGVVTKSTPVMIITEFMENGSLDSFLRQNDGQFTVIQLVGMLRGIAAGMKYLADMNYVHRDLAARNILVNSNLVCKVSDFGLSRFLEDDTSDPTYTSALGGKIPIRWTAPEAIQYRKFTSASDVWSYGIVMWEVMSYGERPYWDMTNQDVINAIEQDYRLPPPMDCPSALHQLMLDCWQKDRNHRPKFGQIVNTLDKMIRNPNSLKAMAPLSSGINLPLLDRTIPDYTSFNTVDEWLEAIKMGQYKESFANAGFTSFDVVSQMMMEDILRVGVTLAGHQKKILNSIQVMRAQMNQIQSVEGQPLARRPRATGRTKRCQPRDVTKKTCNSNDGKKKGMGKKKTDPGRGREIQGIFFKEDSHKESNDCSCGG
- test-details: phosphorylation enrichment, bacterial display (enrichment ratio); higher = better substrate or ligand; peptides without Tyr show the background
Assign phosphorylation enrichment to each entry below.
Field format: numeric only.

Task item: What phosphorylation enrichment value was documented for this sequence, MPPHICAITDT [MYH9_Y151_Y151C] ?
Reply: 0.53

Task item: Could you tell me which phosphorylation enrichment is on file for RVKPIYFHTQG [AR_Y916_K911R] ?
Reply: 0.804

Task item: Quick one: phosphorylation enrichment for LNEQHYGGLTG [PGAM4_Y92_R90Q] ?
Reply: 0.574

Task item: Give its phosphorylation enrichment value. Item: FDRREYSRFEK [ITGB7_Y758_YF]
Reply: 0.519

Task item: Quick one: phosphorylation enrichment of PPLMLYNPTTY [EGFR_Y270] ?
Reply: 0.718

Task item: For VNYGAYINDFN [GLB1_Y488_K493N] , what is its reported phosphorylation enrichment?
Reply: 1.09

Task item: Fill in the blank: the reported phosphorylation enrichment of ALWFIYLHTRS [ENG_Y614_S615L_YF] is ____.
Reply: 0.583

Task item: What measured phosphorylation enrichment goes with SSDKVYAHQMD [MLH1_Y379_V384D] ?
Reply: 0.502

Task item: # input sequence: HTLIKYTDGDQ [PUS7L_Y94] ; wanted: its phosphorylation enrichment
Reply: 0.982

Task item: What phosphorylation enrichment value was documented for this sequence, VPDTNYTSDEE [STK33_Y439_A437T] ?
Reply: 0.658

Task item: Look at this sequence and give its reported phosphorylation enrichment. PVVKLYATDGR [RP1_Y199]
Reply: 0.78

Task item: Fill blank: measured phosphorylation enrichment of the sequence GSPPPYRRRKR [MBD1_Y403] is ____.
Reply: 0.625

Task item: Given the entry FGISGYLVDSV [MAP2K3_Y214] , report its measured phosphorylation enrichment.
Reply: 0.501

Task item: # phosphorylation enrichment lookup, item SDVDLYQVRTA [PSMD9_Y70]
Reply: 0.538

###

Can you tell me phosphorylation enrichment for the items I'm about to list?
- Test system: AncSZ
- test-details: phosphorylation enrichment, bacterial display (enrichment ratio); higher = better substrate or ligand; peptides without Tyr show the background

Task item: I'm curious: which phosphorylation enrichment was measured for FDAHIYEGRVI [PRKCD_Y64] tested on AncSZ?
Reply: 0.929

Task item: State its phosphorylation enrichment on AncSZ: IMVFVYCRVFQ [ADRB2_Y219_S220C]
Reply: 0.729

Task item: Quick check: phosphorylation enrichment on AncSZ, item NKEAIYSGFIR [SMCHD1_Y283_YF] ?
Reply: 0.78

Task item: # query: phosphorylation enrichment | item HELFVYKCDEN [DOCK3_Y548_YF] | system: AncSZ
Reply: 2.31

Task item: Hello, I am looking for reported phosphorylation enrichment with AncSZ for QHVPDYRQNVY [PCDHGA1_Y890] . Could you help?
Reply: 0.742

Task item: // lookup phosphorylation enrichment | system=AncSZ | key= FRQNVYIPGSN [PCDHGA1_Y895_YF]
Reply: 0.576

Task item: Form: Entry = QKMLDYLKEKK [RYR2_Y3780] | System = AncSZ | phosphorylation enrichment = ____
Reply: 0.9

###

Could you please report measured phosphorylation enrichment for the items listed next?
- study-target: Fes (UniProt P07332)
- Sequence (P07332 whole entry, looked up): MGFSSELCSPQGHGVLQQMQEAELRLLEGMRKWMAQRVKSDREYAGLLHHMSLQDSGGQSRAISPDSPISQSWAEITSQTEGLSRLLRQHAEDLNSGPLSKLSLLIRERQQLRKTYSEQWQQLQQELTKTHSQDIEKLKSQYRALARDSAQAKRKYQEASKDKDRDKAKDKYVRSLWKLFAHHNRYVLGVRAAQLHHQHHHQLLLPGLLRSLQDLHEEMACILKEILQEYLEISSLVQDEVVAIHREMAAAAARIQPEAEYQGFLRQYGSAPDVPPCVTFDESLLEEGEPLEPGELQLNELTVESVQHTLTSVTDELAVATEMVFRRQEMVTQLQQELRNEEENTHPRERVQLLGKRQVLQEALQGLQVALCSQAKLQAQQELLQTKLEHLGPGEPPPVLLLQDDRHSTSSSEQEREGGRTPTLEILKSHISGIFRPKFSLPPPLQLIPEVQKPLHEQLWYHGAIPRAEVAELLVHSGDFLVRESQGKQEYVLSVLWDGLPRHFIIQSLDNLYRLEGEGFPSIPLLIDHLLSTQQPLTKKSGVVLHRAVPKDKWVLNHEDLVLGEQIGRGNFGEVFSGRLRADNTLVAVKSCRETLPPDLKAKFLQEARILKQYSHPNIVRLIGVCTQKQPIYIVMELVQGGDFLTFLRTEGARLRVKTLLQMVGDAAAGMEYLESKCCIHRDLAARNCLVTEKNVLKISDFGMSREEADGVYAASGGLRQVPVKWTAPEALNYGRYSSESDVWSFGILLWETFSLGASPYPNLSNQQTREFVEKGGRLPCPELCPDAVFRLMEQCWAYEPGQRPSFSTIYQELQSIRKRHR
- test-details: phosphorylation enrichment, bacterial display (enrichment ratio); higher = better substrate or ligand; peptides without Tyr show the background

Task item: Reported phosphorylation enrichment, sequence RVAFQYGVTDL [MYBPC3_Y340_I336V] : ____
Reply: 1.27

Task item: Sample ENQEIYQKAFD [KPNA1_Y493] — what was its phosphorylation enrichment?
Reply: 1.15

Task item: Form field: reported phosphorylation enrichment of KNILCYIQGGS [HYDIN_Y4610]
Reply: 1.43

Task item: Fill blank: measured phosphorylation enrichment of the sequence CTTILYNYMCN [TP53_Y234_H233L] is ____.
Reply: 1.06

Task item: phosphorylation enrichment for GIVEDYRPPFF [ACVRL1_Y421_YF] ?
Reply: 0.899

Task item: Any idea what its phosphorylation enrichment is? The sequence is SPQAHYRLSAF [ADAMTS9_Y100_S96P]
Reply: 0.659

Task item: May I ask what phosphorylation enrichment has been recorded for TFGQVYKGRHV [TNIK_Y40_YF] ?
Reply: 0.545

Task item: # input sequence: STKELYEKFMI ; wanted: its phosphorylation enrichment
Reply: 0.857

Task item: Which phosphorylation enrichment reading was recorded for the sequence FGHTFYNQAIM [MCCC2_Y196_R193H] ?
Reply: 0.945

Task item: Name the reported phosphorylation enrichment value associated with the sequence VLAAQYTTVGR [SGSH_Y240_D235V]
Reply: 0.598

Task item: Could you tell me which phosphorylation enrichment is on file for RLLVVFPWTQR [HBB_Y36_Y36F] ?
Reply: 1.73

Task item: Quick one: phosphorylation enrichment of KERNQYGGVMV [MMP21_Y347_E349G] ?
Reply: 0.594

Task item: What value of measured phosphorylation enrichment is listed for PESCLYKESWI [IQGAP2_Y630_L635I] ?
Reply: 1.97

Task item: Fill blank: measured phosphorylation enrichment of the sequence TVEDHDYEGGI [TKT_Y563_Y563D] is ____.
Reply: 1.17

Task item: Given the entry HNLDFYKMTTN [FGFR3_Y648_K650M_YF] , report its measured phosphorylation enrichment.
Reply: 1.74

Task item: For the sequence QNAGDYYDLYG [PTPN11_Y62_T59A] , what phosphorylation enrichment is on record?
Reply: 1.25

Task item: # lookup: phosphorylation enrichment of MKNQKYGRIIM [HSD17B4_Y143_K140N]
Reply: 0.646

Task item: Field request: phosphorylation enrichment | item: SNVEQYQAMVT [TPR_Y965]
Reply: 0.692

Task item: // phosphorylation enrichment lookup, key: RAIGFYSATSK [FAM120A_Y328_YF]
Reply: 1.03

Task item: Param item = HPFHVYPQPGM [BAG3_Y114] ; retrieve measured phosphorylation enrichment.
Reply: 0.852

Task item: GET /values?readout=phosphorylation enrichment&item= VHYLVYHHHHH [CACNA1H_Y519_H516Y]
Reply: 2.17

Task item: Look up phosphorylation enrichment: PPAPRYHHSAV [LZTR1_Y119]
Reply: 1.26

Task item: For the sequence TLQTMYGCDVG [HLA-B_Y123_S121T] , what phosphorylation enrichment is on record?
Reply: 1.15

Task item: Given NPETCYQRLKK [TK2_Y190] , state its recorded phosphorylation enrichment.
Reply: 1.03

Task item: Find the recorded phosphorylation enrichment belonging to HNQDDYSFPSR [LDLR_Y845_G844D_YF] and report it.
Reply: 0.77

Task item: Fill in: phosphorylation enrichment of RLLVVYPWTQR [HBB_Y36] is ___
Reply: 1.06

Task item: Consider the sequence shown here: MHLRQYELLGG [GNAS_Y391] What is its recorded phosphorylation enrichment?
Reply: 0.869

Task item: Endpoint output: phosphorylation enrichment of RRNVYYYSYLL [PTEN_Y177_Y174N] . Value?
Reply: 0.796

Task item: Entry under review: QYNIQYSSSAA [ERBB2IP_Y981] . Reported phosphorylation enrichment?
Reply: 0.964

Task item: Requested read-out: phosphorylation enrichment. Entry: KGFRGYSFDDI [TMEM230_Y110_YF]
Reply: 0.798

Task item: Return reported phosphorylation enrichment; argument: GGQDVYGDFGG [Probound]
Reply: 0.837

Task item: I would be grateful if you could share the reported phosphorylation enrichment for NTGLEYIKFTW [HRH1_Y386_D385E] .
Reply: 1.09

Task item: Return reported phosphorylation enrichment; argument: AAAAMYTFLPD [MYORG_Y36]
Reply: 1.12

Task item: Reported phosphorylation enrichment for AEYGLYRAMVR [VSX2_Y222_G223R] : what is it?
Reply: 0.768

Task item: Give the measured phosphorylation enrichment of KQQEIYQELTQ [CD209_Y239] .
Reply: 1.07

Task item: If you can, please state the reported phosphorylation enrichment value of GGTTMYPGIAD [ACTC1_Y308] .
Reply: 0.722

Task item: Requested field: phosphorylation enrichment. Item: ASFSLYEPAKM [MKI67_Y340_P338S]
Reply: 1.28

Task item: Quick check: phosphorylation enrichment of AGITAYQSCLQ [ADGRA2_Y377] ?
Reply: 1.3

Task item: Entry ETDPRYFDEEF [AKT1_Y437_T435P] : reported phosphorylation enrichment = ?
Reply: 1.31

Task item: Consider the sequence TLGPFYPSLLF [CRYAA_Y18_R21L] and give its measured phosphorylation enrichment.
Reply: 1.03

Task item: Request the reported phosphorylation enrichment associated with DVMDLYKTLRG [NR3C1_Y30_F29L]
Reply: 0.776

Task item: Which phosphorylation enrichment reading was recorded for the sequence DPGVSYCTREE [PDHA1_Y301_R302C] ?
Reply: 1.12

Task item: Quick one: phosphorylation enrichment for DYTEAYNPKIK [CLK1_Y305] ?
Reply: 0.913

Task item: For the sequence KSIQLYDTPFE [SHB_Y297_G293S_YF] , what phosphorylation enrichment is on record?
Reply: 1

Task item: Please look up its phosphorylation enrichment: FRQNVYIPGSN [PCDHGA1_Y895_YF]
Reply: 0.613

Task item: // phosphorylation enrichment lookup, key: KKRSVYLKVLF [CC2D2A_Y683]
Reply: 1.19

Task item: Bench note: what phosphorylation enrichment did TFGQVYKGPHV [TNIK_Y40_R43P_YF] show?
Reply: 0.751

Task item: GET /values?readout=phosphorylation enrichment&item= RPSRWYQFRVA [ANOS1_Y259]
Reply: 1.55

Task item: Which phosphorylation enrichment reading was recorded for the sequence PRLMLYNPTTY [EGFR_Y270_P266R] ?
Reply: 1.21

Task item: So what does the record say about phosphorylation enrichment for NKYTTYLPWLP [C9orf24_Y126_R129W] ?
Reply: 0.944

Task item: So what's the measured phosphorylation enrichment for this one? ALWFIYLHTRS [ENG_Y614_S615L_YF]
Reply: 1.37

Task item: Entry under review: KDQGGYAMHQD [MAPT_Y29_T30A] . Reported phosphorylation enrichment?
Reply: 0.798

Task item: For the sequence shown here, FLRTGYSIPFG [TGM1_Y370_V372I_YF] , give the reported phosphorylation enrichment.
Reply: 0.934

Task item: Item under review: ETRWNYHFEVV [GCNT3_Y267_K266N] . Reported phosphorylation enrichment?
Reply: 1.65

Task item: Which value of phosphorylation enrichment has been reported for EYFDGYWEYSV [ITGA2B_Y265_G267E] in the records?
Reply: 1.72

Task item: Query (sequence): FDRREYSRFEK [ITGB7_Y758_YF] ; field requested: phosphorylation enrichment
Reply: 0.666

Task item: # lookup: phosphorylation enrichment of FFIMMYTGSNV [DNAJC13_Y1131]
Reply: 1.29

Task item: Find the recorded phosphorylation enrichment belonging to EDSEFYKAFEE [CASQ2_Y179_YF] and report it.
Reply: 1.21
